# experimental_system: ErbB3 (UniProt P21860 20-643)
# Sequence (P21860 20-643): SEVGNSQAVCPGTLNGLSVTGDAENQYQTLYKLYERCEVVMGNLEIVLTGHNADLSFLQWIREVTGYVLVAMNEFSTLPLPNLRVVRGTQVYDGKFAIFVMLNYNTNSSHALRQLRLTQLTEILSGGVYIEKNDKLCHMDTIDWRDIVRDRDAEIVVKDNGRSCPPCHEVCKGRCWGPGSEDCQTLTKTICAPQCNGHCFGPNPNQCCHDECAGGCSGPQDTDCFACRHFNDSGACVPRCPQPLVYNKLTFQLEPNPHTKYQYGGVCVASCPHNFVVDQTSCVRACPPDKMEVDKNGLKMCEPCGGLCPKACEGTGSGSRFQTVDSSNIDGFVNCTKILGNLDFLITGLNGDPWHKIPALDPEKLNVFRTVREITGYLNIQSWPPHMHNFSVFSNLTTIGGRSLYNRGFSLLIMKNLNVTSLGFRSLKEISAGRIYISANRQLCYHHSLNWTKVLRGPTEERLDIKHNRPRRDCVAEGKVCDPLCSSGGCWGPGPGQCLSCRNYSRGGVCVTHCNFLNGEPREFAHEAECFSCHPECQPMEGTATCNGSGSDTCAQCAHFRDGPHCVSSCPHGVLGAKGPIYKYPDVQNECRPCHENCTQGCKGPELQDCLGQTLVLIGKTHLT
# procedure_text: binding
pEC50: −log10 of the molar value.

binder	pEC50
6 (antibody, V domains shown) V domain 1: PQPVLHQPPAMSSALGTTIRLTCTLRNDHDIGVYSVYWYQQRPGHPPRFLLRYFSQSDKSQGPQVPPRFSGSKDVARNRGYLSISELQPEDEAMYYCAMGARSSVTHVFGSGTQLTVLS V domain 2: QPVLHQPPAMSSALGTTIRLTCTLRNDHDIGVYSVYWYQQRPGHPPRFLLRYFSQSDKSQGPQVPPRFSGSKDVARNRGYLSISELQPEDEAMYYCAMGARSSVTHVFGSGTQLTVLS	10.32
4 (antibody, V domains shown) V domain 1: FQPVLHQPPAMSSALGTTIRLTCTLRNDHDIGVYSVYWYQQRPGHPPRFLLRYFSQSDKSQGPQVPPRFSGSKDVARNRGYLSISELQPEDEAMYYCAMGARSSVTHVFGSGTQLTVLS V domain 2: QPVLHQPPAMSSALGTTIRLTCTLRNDHDIGVYSVYWYQQRPGHPPRFLLRYFSQSDKSQGPQVPPRFSGSKDVARNRGYLSISELQPEDEAMYYCAMGARSSVTHVFGSGTQLTVLS	10.34
2 (antibody, V domains shown) V domain 1: FQPVLHQPPAMSSALGTTIRLTCTLRNDHDIGVYSVYWYQQRPGHPPRFLLRYFSQSDKSQGPQVPPRFSGSKDVARNRGYLSISELQPEDEAMYYCAMGARSSVTHVFGSGTQLTVLS V domain 2: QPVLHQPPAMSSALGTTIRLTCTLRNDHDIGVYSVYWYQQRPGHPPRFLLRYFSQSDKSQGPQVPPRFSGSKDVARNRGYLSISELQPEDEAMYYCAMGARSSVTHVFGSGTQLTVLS	10.29
5 (antibody, V domains shown) V domain 1: PQPVLHQPPAMSSALGTTIRLTCTLRNDHDIGVYSVYWYQQRPGHPPRFLLRYFSQSDKSQGPQVPPRFSGSKDVARNRGYLSISELQPEDEAMYYCAMGARSSVTHVFGSGTQLTVLS V domain 2: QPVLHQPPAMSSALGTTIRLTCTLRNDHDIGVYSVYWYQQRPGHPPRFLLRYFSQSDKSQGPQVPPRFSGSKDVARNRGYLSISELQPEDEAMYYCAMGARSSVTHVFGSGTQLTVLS	10.24
3 (antibody, V domains shown) V domain 1: FQPVLHQPPAMSSALGTTIRLTCTLRNDHDIGVYSVYWYQQRPGHPPRFLLRYFSQSDKSQGPQVPPRFSGSKDVARNRGYLSISELQPEDEAMYYCAMGARSSVTHVFGSGTQLTVLS V domain 2: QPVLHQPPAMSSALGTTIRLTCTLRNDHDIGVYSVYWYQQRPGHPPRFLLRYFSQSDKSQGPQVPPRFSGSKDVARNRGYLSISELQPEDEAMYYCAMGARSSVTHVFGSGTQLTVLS	10.30
7 (antibody, V domains shown) V domain 1: PQPVLHQPPAMSSALGTTIRLTCTLRNDHDIGVYSVYWYQQRPGHPPRFLLRYFSQSDKSQGPQVPPRFSGSKDVARNRGYLSISELQPEDEAMYYCAMGARSSVTHVFGSGTQLTVLS V domain 2: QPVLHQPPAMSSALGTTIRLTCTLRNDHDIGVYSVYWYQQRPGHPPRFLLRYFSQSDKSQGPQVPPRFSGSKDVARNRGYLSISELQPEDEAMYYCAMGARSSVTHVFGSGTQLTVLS	10.43
